Numbers sourced from patent US20070255061A1.

- STUDY TARGET: human mGluR5d (Homo sapiens, UniProt P41594)
- Construct: GHEK cells stably expressing the receptor are named only for the IP3 assay
- Sequence (P41594 21-942 isoform P41594-3 limits assumed): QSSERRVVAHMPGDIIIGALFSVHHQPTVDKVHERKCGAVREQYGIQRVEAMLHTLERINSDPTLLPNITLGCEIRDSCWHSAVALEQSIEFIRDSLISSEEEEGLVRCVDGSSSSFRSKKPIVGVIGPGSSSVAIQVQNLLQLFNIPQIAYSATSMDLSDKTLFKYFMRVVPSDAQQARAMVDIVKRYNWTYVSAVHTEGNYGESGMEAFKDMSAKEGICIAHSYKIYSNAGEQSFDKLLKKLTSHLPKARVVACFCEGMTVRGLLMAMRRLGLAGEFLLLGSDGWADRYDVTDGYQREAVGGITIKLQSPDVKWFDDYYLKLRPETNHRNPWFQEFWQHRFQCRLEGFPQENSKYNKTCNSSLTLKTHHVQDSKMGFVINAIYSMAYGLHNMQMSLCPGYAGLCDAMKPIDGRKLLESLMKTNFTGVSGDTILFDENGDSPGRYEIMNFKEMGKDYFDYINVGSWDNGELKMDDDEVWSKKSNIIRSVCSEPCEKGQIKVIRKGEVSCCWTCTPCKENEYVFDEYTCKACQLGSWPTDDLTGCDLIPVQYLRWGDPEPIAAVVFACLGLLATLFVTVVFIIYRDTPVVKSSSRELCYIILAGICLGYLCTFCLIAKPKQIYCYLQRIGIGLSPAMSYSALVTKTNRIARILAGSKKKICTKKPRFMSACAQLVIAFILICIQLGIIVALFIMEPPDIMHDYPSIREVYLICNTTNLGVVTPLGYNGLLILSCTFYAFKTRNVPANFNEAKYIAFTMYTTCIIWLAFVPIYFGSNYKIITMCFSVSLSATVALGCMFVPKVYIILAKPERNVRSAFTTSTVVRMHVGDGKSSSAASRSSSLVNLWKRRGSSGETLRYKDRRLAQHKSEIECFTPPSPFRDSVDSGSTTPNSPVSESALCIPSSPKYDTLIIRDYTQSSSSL
- ASSAY REMARKS: FLIPR analysis of [Ca2+]i mobilization, antagonist activity
- REPORTED CONDITIONS: cells expressing human mGluR5d, read-out: IC50 mGluR5
ASSAY METRIC: IC50 (µM)
Expressed in µM, but write only the number.

Value of measured IC50 for the entry N#Cc1cc(F)cc(-n2nnc(-c3ccccn3)n2)c1 : 0.012
